- System: U2OS
- test.details: cell viability relative to DMSO; higher = less toxic
- condition.notes: 72 h; 1000 nM
measure: cell viability
Provide the measurement as a number trailed by its unit.

Some molecules with known cell viability results, for comparison:
molecule	assay.result
C=C(C)[C@@H]1CCC(C)=C[C@H]1c1c(OC)cc(C)cc1OC [O-1918]	101%
Cc1cc(OI)c(C(C)C)cc1-c1cc(C(C)C)c(OI)cc1C [thymol-iodide]	98.2%
Cc1sc(C)c2c1CCC=C2c1c[nH]cn1 [TC-G-1000]	102%

Prompt line: Read off the recorded cell viability for CC(C)NCC(O)COc1cccc2[nH]c3ccccc3c12 (centres undefined) [carazolol]
Response line: 97.8%

---

- Test system: A549-ACE2
- test.details: drug-induced phospholipidosis relative to tamoxifen; higher = more phospholipidosis
- condition.notes: 30 µM; 72 h
Reported drug-induced phospholipidosis values for a set of compounds
Report the value in % with no unit label.

Solved entries:
smiles.repr	drug-induced phospholipidosis, %
Cc1csc(NC(=O)CSc2ccc(-c3ccccc3)nn2)n1	24.6
CCOc1cn(-c2ccc(F)cc2C)nc1C(=O)Nc1ccc(Oc2ccnc3cc(OC)c(OC)cc23)c(F)c1	61.4
CC(=O)O[C@@H]1C[C@H]2C(C)(C)C(=O)C=C[C@]2(C)[C@H]2CC[C@@]3(C)[C@H](c4ccoc4)OC(=O)[C@H]4O[C@]43[C@@]21C	40.6

Then there is this compound:
Prompt line: Give reported drug-induced phospholipidosis value for O=C1C=C2C=C[C@@H]3C[C@@]2(O1)[C@H]1CCCCN31
Response line: 11.9

---

- Test system: Calu-3
- test.details: cell viability relative to DMSO; higher = less toxic
- condition.notes: 72 h; 10 nM
measure: cell viability (%)
State the answer as a number, implicitly in %.

# annotated cases, reported cell viability shown
molecule	unit	cell viability
Nc1c2c(nc3c1CCC3)CCCC2	%	99.9
CC(O)Cn1cnc2c1c(=O)n(C)c(=O)n2C (stereo not given)	%	100
C=C(C)[C@@H]1CCC(C)=C[C@H]1c1c(OC)cc(C)cc1OC	%	97.5
COC[C@H](NC(=O)c1cnc(C)s1)C(=O)N[C@@H](COC)C(=O)N[C@@H](Cc1ccccc1)C(=O)[C@@]1(C)CO1	%	102

Prompt line: Identify measured cell viability associated with O=C(O)CCCc1ccccc1 [phenylbutyrate]
Response line: 112

---

- Tested on: Caco-2
- test.details: cell viability relative to DMSO; higher = less toxic
- condition.notes: 72 h; 10 nM
measure: cell viability
Respond with the figure and its unit, in that order.

Check out these entries, answers already filled in.
compound	measure	assay.result
CCN(CCO)CCCC(C)Nc1ccnc2cc(Cl)ccc12 (centres undefined) [hydroxychloroquine]	cell viability	116%
N#C/C(=C\c1ccc(O)c(O)c1)C(=O)OCCc1cccs1 [2-TEDC]	cell viability	102%
CCOc1cn(-c2ccc(F)cc2C)nc1C(=O)Nc1ccc(Oc2ccnc3cc(OC)c(OC)cc23)c(F)c1 [LDC1267]	cell viability	96.1%
Oc1ccc(Cl)cc1Cc1cc(Cl)ccc1O [dichlorophen]	cell viability	88.9%
c1cc(Nc2cc(C3CC3)n[nH]2)nc(Nc2ccc3[nH]cnc3c2)n1 [APY-29]	cell viability	101%
C[C@H](NC[C@H](O)CP(=O)(O)CC1CCCCC1)c1ccc(Cl)c(Cl)c1	cell viability	92.1%

Prompt line: Dear colleague, please send me the reported cell viability for COc1ccc(C(=O)NCc2cccnc2)cc1C(=O)NCc1cccnc1 [picotamide] when you can.
Response line: 87.9%

Prompt line: Provide cell viability value for the following compound: CC(C)(C)C(=O)OCC(=O)[C@H]1CC[C@H]2[C@@H]3CCC4=CC(=O)CC[C@]4(C)[C@H]3CC[C@]12C [desoxycorticosterone-pivalate]
Response line: 97%

Prompt line: Let me know recorded cell viability for C=CCc1ccc(O)c(-c2ccc(O)c(CC=C)c2)c1 [honokiol] , thanks.
Response line: 94.3%

---

Each entry below lists one item and its recorded cell viability value.
- Test system: U2OS
- test.details: cell viability relative to DMSO; higher = less toxic
- condition.notes: 72 h; 1 nM
Output spec: scalar in %, unitless text.

Known results for compounds:
compound	study.target	cell viability [%]
CC1Nc2ccc(Cl)cc2S(=O)(=O)N1 (centres undefined)	U2OS	99.3
C[C@H](NC[C@H](O)CP(=O)(O)CC1CCCCC1)c1ccc(Cl)c(Cl)c1	U2OS	94.6
NC1CCN(c2c(F)cc3c(=O)c(C(=O)O)cn(C4CC4)c3c2Cl)C1 (centres undefined)	U2OS	95
Cc1sc2c(c1C)C(c1ccc(Cl)cc1)=N[C@@H](CC(=O)Nc1ccc(O)cc1)c1nnc(C)n1-2	U2OS	99.7
Cc1cccc(-c2nn3c(c2-c2ccnc4ccc(C(N)=O)cc24)CCC3)n1	U2OS	98.3
N#CC(=C(/N)Sc1ccccc1N)/C(C#N)=C(/N)Sc1ccccc1N	U2OS	98.2
Cc1ccc(NCCCc2ccccc2)c(N)c1	U2OS	98.9
NC(=S)N/N=C/c1coc2ccccc2c1=O.[Cl][Cu][Cl]	U2OS	105

Prompt line: Given CCOc1cn(-c2ccc(F)cc2C)nc1C(=O)Nc1ccc(Oc2ccnc3cc(OC)c(OC)cc23)c(F)c1 , respond with its cell viability.
Response line: 97.5

Prompt line: Let me know recorded cell viability for Sc1ncnc2nc[nH]c12 , thanks.
Response line: 102

Prompt line: Given COCc1nc2c([nH]1)c(=O)n(C)c(=O)n2CC(C)C , respond with its cell viability.
Response line: 95.8

Prompt line: Read off the recorded cell viability for O=C(O)C(=O)CBr [3-bromopyruvate]
Response line: 97.7

Prompt line: Give recorded cell viability. COc1cccc2c1C(=O)c1c(O)c3c(c(O)c1C2=O)C[C@@](O)(C(C)=O)C[C@@H]3O[C@H]1C[C@H](N)[C@H](O)[C@H](C)O1
Response line: 96.6

Prompt line: Output measured cell viability for this item: CC(C)OC(=O)[C@H](C)N[P@](=O)(CO[C@H](C)Cn1cnc2c(N)ncnc21)Oc1ccccc1 [tenofovir-alafenamide]
Response line: 99.4

---

# key: entry, value: cell viability
- System: Calu-3
- test.details: cell viability relative to DMSO; higher = less toxic
- condition.notes: 72 h; 100 nM
The reply should contain only the number, in %.

Check out these entries, answers already filled in.
compound	cell viability, %
CC[N+](C)(CC)CC(=O)Nc1c(C)cccc1C [N-methyllidocaine-iodide]	102
COc1ccc(C2=N[C@@H](c3ccc(Cl)cc3)[C@@H](c3ccc(Cl)cc3)N2C(=O)N2CCNC(=O)C2)c(OC(C)C)c1	89.7
CC[C@H](C)[C@H](N)C(=O)O	91.1

Prompt line: Give the reported value of cell viability for this record: COc1cc(-c2ccc(=O)[nH]n2)ccc1OC(F)F
Response line: 89.5

Prompt line: Item CCN(CCO)CCCC(C)Nc1ccnc2cc(Cl)ccc12 (stereo unspecified) [hydroxychloroquine] : provide cell viability
Response line: 86.8

Prompt line: Supply reported cell viability belonging to this compound: CC(C)(Cc1ccc2ccccc2c1)NC[C@@H](O)COc1cccc(Cl)c1C#N
Response line: 96.7

Prompt line: Quote cell viability reported for C[C@H](Cn1cnc2c(N)ncnc21)OCP(=O)(O)O please.
Response line: 94.7

Prompt line: Name the recorded cell viability of the compound listed here: COc1ccc(C2CC(c3ccccc3)=NN2c2ccc(S(N)(=O)=O)cc2)cc1 (stereo unspecified)
Response line: 105

---

- Test system: HepG2
- test.details: cell viability relative to DMSO; higher = less toxic
- condition.notes: 72 h; 1 nM
measure: cell viability (%)
Numeric only. Scale: %

compound	assay.result
C=C1CC/C=C(\C)CC[C@@H]2[C@@H]1CC2(C)C	105

Prompt line: Please give measured cell viability of the following entry: Cc1nc2cnc3ccc(C#Cc4cccnc4)cc3c2n1-c1ccc(C(C)(C)C#N)cc1
Response line: 104

Prompt line: Name the recorded cell viability of the compound listed here: CC[C@H]1CN2CCc3cc(OC)c(OC)cc3[C@@H]2C[C@@H]1C[C@H]1NCCc2cc(OC)c(OC)cc21
Response line: 91.7

Prompt line: Specify cell viability for C[C@H]1CNCCCN1S(=O)(=O)c1cccc2cncc(F)c12 and stop.
Response line: 111

Prompt line: Using the record for CCC(CC)[C@H](NC(C)=O)[C@@H]1[C@H](O)[C@@H](C(=O)O)C[C@H]1NC(=N)N , state its measured cell viability.
Response line: 110

---

- Test system: Caco-2
- test.details: cell viability relative to DMSO; higher = less toxic
- condition.notes: 72 h; 1 nM
Property: cell viability; scope: individual compounds
Please reply with the bare figure in % and do not write the unit itself.

Prompt line: Item COCCCOc1ccnc(C[S+]([O-])c2nc3ccccc3[nH]2)c1C (stereo not drawn) : provide cell viability
Response line: 99.4

Prompt line: Give the measured cell viability for COc1cccc2c1C(=O)c1c(O)c3c(c(O)c1C2=O)C[C@@](O)(C(=O)CO)C[C@@H]3O[C@H]1C[C@H](N)[C@H](O[C@@H]2CCCCO2)[C@H](C)O1
Response line: 96.9

Prompt line: Tell me its cell viability given COc1cc(Cc2cnc(N)nc2N)cc(OC)c1OC as the entry.
Response line: 114
